System: MCF7
Experiment: NCI tumour cell line growth inhibition, 48 h
Calls of active or inactive are those of the source. No stated cut-off is given here; in the data, active = GI50 up to about 1.1 µM and inactive = higher.
Outcome codes: active, inactive

>  <COMPOUND>
COc1cc(-c2ccccc2N)c2cccnc2c1OC

>  <ANSWER_LABEL>
inactive

$$$$
>  <COMPOUND>
O=C(N/N=C(COc1ccccc1)\N=C\c1ccncc1)c1ccncc1

>  <ANSWER_LABEL>
inactive

$$$$
>  <COMPOUND>
Cc1n[nH]c(=O)n1/N=C/c1ccc([N+](=O)[O-])o1

>  <ANSWER_LABEL>
inactive

$$$$
>  <COMPOUND>
CS(=O)(=O)Nc1ccc2c(c1)N(S(C)(=O)=O)CC2CCl (configuration not stated)

>  <ANSWER_LABEL>
inactive

$$$$
>  <COMPOUND>
O=C1c2cccc3cccc(c23)C(=O)N1CCCNCCCCNCCCN1C(=O)c2cccc3cccc(c23)C1=O

>  <ANSWER_LABEL>
active

$$$$
>  <COMPOUND>
Cc1ccc(S(=O)(=O)N2CC3OC(C)(C)OC3C2CO)cc1 (configuration not stated)

>  <ANSWER_LABEL>
inactive

$$$$
>  <COMPOUND>
N#CC1(C#N)C(c2ccccc2)C=CC(c2ccc([N+](=O)[O-])cc2)C1(C#N)C#N (configuration not stated)

>  <ANSWER_LABEL>
inactive

$$$$
>  <COMPOUND>
CC(C)(C)OC(=O)N1C[C@H](CC(=O)OCc2ccccc2)C[C@H]1C(=O)OCC(Cl)(Cl)Cl

>  <ANSWER_LABEL>
inactive

$$$$
>  <COMPOUND>
COc1ccc(CCn2ccc(=O)c(O)c2C)cc1OC

>  <ANSWER_LABEL>
inactive

$$$$
>  <COMPOUND>
COC(=O)C(Cc1ccccc1)NC(=O)CNC(=O)CSc1nnc(COc2ccc(Cl)cc2)n1-c1ccccc1 (configuration not stated)

>  <ANSWER_LABEL>
inactive

$$$$
>  <COMPOUND>
CC(=O)O[C@H]1CC[C@@]2(C)C(=CC[C@@H]3[C@@H]2CC[C@]2(C)NC(=O)/C(=C\c4ccccc4)C[C@@H]32)C1

>  <ANSWER_LABEL>
inactive

$$$$
>  <COMPOUND>
O=C1C(CO)=C[C@H](O)[C@H]2O[C@@H]12

>  <ANSWER_LABEL>
inactive

$$$$
>  <COMPOUND>
COc1c2ccoc2cc2oc(=O)ccc12 [BERGAPTEN]

>  <ANSWER_LABEL>
inactive

$$$$
>  <COMPOUND>
CCCCCCSCC/C(C)=N\OC

>  <ANSWER_LABEL>
inactive

$$$$
>  <COMPOUND>
CN(C)CCNC(=O)c1ccc(Cl)c2cc3ccccc3nc12

>  <ANSWER_LABEL>
active

$$$$
>  <COMPOUND>
NC(=O)C(N)CC12CC3CC(CC(C3)C1)C2 (configuration not stated)

>  <ANSWER_LABEL>
inactive

$$$$
>  <COMPOUND>
COc1ccc(/C=C\c2cc(OC)c(OC)c(OC)c2)cc1OC(=O)NCCN(C)C

>  <ANSWER_LABEL>
active

$$$$
>  <COMPOUND>
COc1ccc(C2Oc3c(cccc3OC)C=C2[N+](=O)[O-])cc1 (configuration not stated)

>  <ANSWER_LABEL>
inactive

$$$$
>  <COMPOUND>
COc1ccc(Nc2c(C#N)c3n(c4ccccc24)c2ccccc2[n+]3C)cc1OC

>  <ANSWER_LABEL>
inactive

$$$$
>  <COMPOUND>
O=C(CCCn1ccnc1[N+](=O)[O-])NCCn1ccnc1[N+](=O)[O-]

>  <ANSWER_LABEL>
inactive

$$$$
>  <COMPOUND>
CC1=NCC[N+]1(CCc1ccccc1)Cc1ccccc1 (configuration not stated)

>  <ANSWER_LABEL>
inactive

$$$$
>  <COMPOUND>
C[C@H](NC1=C(Cl)C(=O)c2c(O)ccc(O)c2C1=O)C(=O)Nc1ccc([N+](=O)[O-])cc1

>  <ANSWER_LABEL>
inactive

$$$$
